Where do these numbers come from? They come from the nanobody polyreactivity screen of Harvey et al. (2022).

# Method Summary: yeast display, Sf9 membrane polyspecificity reagent, FACS + sequencing; frameworks hold sequencing errors

- Item Sequence: "QVQLVESGGGIVQAGGSLRLSCAASGSIFARYAMGWSRPAPGKERELVAAISGRGGSTYYADSVKGRFTISRDHATNTDYLQMNSLKPEDTAVYYWNAVWDDYGFYSPYVVVEYDYWGQGTQVTVSS"
  polyreactivity (PSR sort gate): "high polyreactivity"
- Item Sequence: "QVQLVESGGGLVQAGGSLRLSCDASGRIFYYYGMGWYRQAPGKERELVAAISNGGRTYYADSVKGRFTISRDNAKNTVYLQMNSLKPEDTAVYYCAALTRGRGGYDYWGQGTQVTVSS"
  polyreactivity (PSR sort gate): "high polyreactivity"
- Item Sequence: "QVQLVESGGGLVQAGGSLRLSCAASGRTFVYYAMGWYRQAPGNERELVASISSGAGSPNYADSVKGRYTISRDNAKNTGYVQMNSLKPEDTAVYYCAVDTPRYRYYRTSYDYWRQGTQVTVSS"
  polyreactivity (PSR sort gate): "low polyreactivity"
- Item Sequence: "QVQLVESVGGLVQAGGRLRLSCAASAFIFTSYAMGLYRQAPGKDRELVAAISKRGGSTYYADSVKGRFTISRDYAKNTDYLQMHSLKPEDTAVYYCATRYPQPYSPGYSYDYWGQGTQVTVSS"
  polyreactivity (PSR sort gate): "high polyreactivity"
- Item Sequence: "QVQLVESGGGVVQAGGSLRLSCAASGRIFLKYTMGWYRQAPGKARELVAAISRGGSTYYADSVKGRFTISRDNAKNTVYLQMNSLKPEDTAVYYCAATSYRRTGYNYWGQGTQVTVSS"
  polyreactivity (PSR sort gate): "high polyreactivity"
- Item Sequence: "QVQLVESGGGLVKAGGSLRLICAAYGRIFALYAMGWYRHAPGKERELVAAINNGASTNYADSVKWRFTISRDNAKNTVYVQMNSLKPEDTAVYYCAVRAARSGQRFYSWGQGTQVTVSS"
  polyreactivity (PSR sort gate): "high polyreactivity"
- Item Sequence: "QVQLVESGGGLVQAGGSLRLSCAASGRTFYLYGMGWYRQAPGKERELVAAITLSDGSTYYADSVKGRFTISRDNAKNTVYLQMKSLKPEDTAVYYCAARDYPFPYAMNYWGQGTQVTVSS"
  polyreactivity (PSR sort gate): "low polyreactivity"
- Item Sequence: "QVQLVESGGRLVQAGGSLRLSCAASGSIFTFYALGWYRQAPGKESELVAAISYRGGSTYYADSVRGRFTISRDNAKNTVYLQMNRLKPEDTAVYFCAAGRFPVFFQGYRMEYWGQGTQVTVSS"
  polyreactivity (PSR sort gate): "low polyreactivity"
- Item Sequence: "QVQHVESGGGLVQAGGSLRLSCDASGRIFAKYAMGWYRQAHGKERELVAGISWGGGSTYYADSVKGRFTISRDNAKNTVYLQMNSLKPEDTAVYYCAARIPKQRDVRGSGMNYWGQGTQVTVSS"
  polyreactivity (PSR sort gate): "high polyreactivity"
